target: human vanin-1 present in human plasma (Homo sapiens (Human)); test: Vanin-1 in Human Plasma Assay; settings: 50% pooled human plasma, 50 uM substrate
Sequence (O95497 22-491): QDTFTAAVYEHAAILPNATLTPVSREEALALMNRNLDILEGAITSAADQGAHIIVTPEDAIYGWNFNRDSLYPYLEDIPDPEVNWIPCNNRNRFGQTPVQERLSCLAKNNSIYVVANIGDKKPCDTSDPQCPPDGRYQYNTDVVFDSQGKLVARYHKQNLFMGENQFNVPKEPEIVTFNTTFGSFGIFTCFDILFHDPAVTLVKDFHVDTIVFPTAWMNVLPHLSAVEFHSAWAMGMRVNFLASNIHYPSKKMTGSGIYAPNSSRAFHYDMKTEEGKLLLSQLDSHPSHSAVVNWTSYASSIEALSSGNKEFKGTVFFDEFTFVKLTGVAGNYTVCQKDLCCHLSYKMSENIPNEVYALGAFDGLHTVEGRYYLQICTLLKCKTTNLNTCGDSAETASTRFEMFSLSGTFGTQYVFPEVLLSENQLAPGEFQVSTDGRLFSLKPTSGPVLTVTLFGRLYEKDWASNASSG
QUANTITY_MEASURED: IC50 (nM)

Below: 4 molecules and their reported IC50.
O=C(c1cnc(NC2(c3cncnc3)CC2)nc1)N1CCC(C(F)(F)F)C1 (single isomer, unassigned) [Example 193]    5.39
O=C(c1cnc(NC2(c3cnccn3)CC2)nc1)N1CCC2(CCOCC2)C1 [Example 157]    12.9
O=C(c1cnc(NC2(c3cncnc3)CC2)nc1)N1CCC2(CCOCC2)C1 [Example 188]    1.17
Cc1ccc(C(C)Nc2ncc(C(=O)N3CCC4(CCOCC4)C3)cn2)cn1 (centres unmarked) [Example 162]    2.97

(A) O=C(c1cnc(NC2(c3cncnc3)CC2)nc1)N1CCCC(F)(F)C1 [Example 70]
(B) O=C(c1cnc(NCc2cnccn2)nc1)N1CC2(CCOCC2)C1 [Example 135]
(C) O=C(c1cnc(NC2(c3cncnc3)CCC2)nc1)N1CC2(CCOCC2)C1 [Example 174]
(D) C[C@H](Nc1ncc(C(=O)N2CCC3(CCOCC3)C2)cn1)c1cncnc1 [Example 149]
Order the records so the highest IC50 appears first and the lowest last. Write the labels out in the order the request specifies.
A, B, D, C

====

biological target: human vanin-1 (Homo sapiens (Human), UniProt O95497)
Sequence (O95497 22-491): as above
pIC50: −log10 of the molar value.
QUANTITY_MEASURED: pIC50

Below: 5 molecules and their reported pIC50.
O=C(c1cnc(NC2(c3cncnc3)CC2)nc1)N1CC2(CCOCC2)C1 [Example 189]    9.06
C[C@@H]1COCCN1C(=O)c1cnc(NC2(c3cncnc3)CC2)nc1 [Example 103]    6.23
N#CC1CCCN(C(=O)c2cnc(NC3(c4cncnc4)CC3)nc2)C1 (stereo not shown) [Example 195]    7.97
CCC1(CO)CCN(C(=O)c2cnc(NC3(c4cncnc4)CC3)nc2)C1 (single isomer, unassigned) [Example 202]    7.85
O=C(c1cnc(NCc2cnccn2)nc1)N1CCN2C[C@@H](F)C[C@H]2C1 [Example 110]    6.77

(A) NC(=O)[C@@H]1CCCN1C(=O)c1cnc(NCc2cccnc2)nc1 [Example 32]
(B) O=C(c1cnc(NC2(c3cncnc3)CC2)nc1)N1CCCC2(CCCC[C@H]2O)C1 (stereo partly shown) [Example 100]
Look at A and B . Which one has the lower recorded pIC50 number? Label of pick, please.
A
(A: 4.70, B: 6.87)

====

target: human vanin-1 present in human plasma (Homo sapiens (Human)); test: Vanin-1 in Human Plasma Assay; conditions: 50% pooled human plasma, 50 uM substrate
QUANTITY_MEASURED: IC50 (nM)

Below: 8 molecules and their reported IC50.
CC(C)(Nc1ncc(C(=O)N2CCC3(CCOCC3)C2)cn1)c1cnccn1    1.08
CC(C)(Nc1ncc(C(=O)N2CC3(CCOCC3)C2)cn1)c1cnccn1    0.838
O=C(c1cnc(NC2(c3cncnc3)CC2)nc1)N1CCC2(CC1)COC2    49.2
CS(=O)(=O)C1CCCN(C(=O)c2cnc(NC3(c4cncnc4)CC3)nc2)C1 (single isomer, unassigned)    32.6
O=C(c1cnc(NC2(c3cncnc3)CCC2)nc1)N1CCC2(CCOCC2)C1    1.61
O=C(c1cnc(NCc2cncnc2C(F)(F)F)nc1)N1CCC2(CCOCC2)C1    39.1
CC(C)(Nc1ncc(C(=O)N2CCC3(CCOCC3)C2)cn1)c1cncnc1    1.22
Cc1ccc([C@H](C)Nc2ncc(C(=O)N3CCC4(CCOCC4)C3)cn2)cn1    0.95

(a) CC1(CO)CCCN(C(=O)c2cnc(NC3(c4cncnc4)CC3)nc2)C1 (stereo not drawn)
(b) O=C(c1cnc(NC2(c3ncccn3)CC2)nc1)N1CC2(CCOCC2)C1
(c) CC(Nc1ncc(C(=O)N2CC3(CCOCC3)C2)cn1)c1cncnc1 (stereo not drawn)
Order the records so the highest IC50 appears first and the lowest last. Write the labels out in the order the request specifies.
a, b, c
(a: 452 nM, b: 14.4 nM, c: 2.21 nM)
